# SUBJECT_OF_TEST: Stearoyl-CoA desaturase (Homo sapiens, UniProt O00767)
# Sequence (O00767 whole entry): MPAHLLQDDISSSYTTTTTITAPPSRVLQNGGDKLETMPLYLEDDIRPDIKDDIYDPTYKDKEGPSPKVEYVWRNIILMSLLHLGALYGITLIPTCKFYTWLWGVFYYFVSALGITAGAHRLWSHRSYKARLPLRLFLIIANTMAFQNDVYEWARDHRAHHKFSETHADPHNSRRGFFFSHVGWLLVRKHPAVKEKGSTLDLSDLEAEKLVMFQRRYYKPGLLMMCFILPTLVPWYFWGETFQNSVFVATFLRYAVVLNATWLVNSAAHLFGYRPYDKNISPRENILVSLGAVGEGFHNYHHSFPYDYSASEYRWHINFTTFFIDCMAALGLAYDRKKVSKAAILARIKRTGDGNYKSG
# MEASUREMENT_DESCRIPTION: Inhibition of human SCD1 expressed in human 293A cells assessed as conversion of [14C]stearate to [14C]oleate
# Type: cell-based
Reported values of IC50 for individual entries
Provide only the numeric value, understood in nM.

Here are 4 compounds together with their reported answers.
| COMPOUND | IC50, nM |
| --- | --- |
| FC(F)(F)c1cccc2c1CCC1(CCN(c3ccc(-c4nnc(Cc5cccnc5)[nH]4)nn3)CC1)O2 | 4 |
| O=C(NCC(O)c1ccccc1)c1ccc(N2CCC3(CC2)Oc2ccccc2CC3O)nn1 (configuration not stated) | 560 |
| Cn1nc(Cc2cccnc2)nc1-c1ccc(N2CCC3(CCc4c(cccc4C(F)(F)F)O3)CC2)nn1 | 38 |
| O=C(NCC(O)c1cccnc1)c1ccc(N2CCC3(CCc4c(F)cccc4O3)CC2)nn1 (configuration not stated) | 7 |

Lab note: O=C(NCC(O)c1ccccc1)c1ccc(N2CCC3(CC2)CC(=O)c2ccccc2O3)nn1 (configuration not stated) gave IC50 of 690

Lab note: FC(F)(F)c1cccc2c1CCC1(CCN(c3ccc(-c4nnc(Cc5cccnc5)o4)nn3)CC1)O2 gave IC50 of 0.8

Lab note: FC(F)(F)c1cccc2c1CCC1(CCN(c3ccc(-c4nnc(CCc5cccnc5)o4)nn3)CC1)O2 gave IC50 of 35

---

# MEASUREMENT_DESCRIPTION: Clearance in C57BL/6J mouse at 5 mg/kg, iv
# Type: ADME, organism-based
# Set-up: dose 5 mg/kg, route intravenous
# CONDITION: in vivo
EXPERIMENTAL_ENDPOINT: clearance (mL/min/kg)
Provide only the numeric value, understood in mL/min/kg.

Lab note: O=C(NCC(O)c1cccnc1)c1ccc(N2CCC3(CCc4c(cccc4C(F)(F)F)O3)CC2)nn1 (stereo unspecified) gave clearance of 17

---

# SUBJECT_OF_TEST: Stearoyl-CoA desaturase (Homo sapiens) (UniProt O00767)
# MEASUREMENT_DESCRIPTION: Inhibition of SCD1 in human 293A cells S9 microsomal fraction assessed as conversion of [14C]stearate to [14C]oleate after 60 mins
Reported values of IC50 for individual entries
Provide only the numeric value, understood in nM.

| MOLECULE | EXPERIMENTAL_ENDPOINT | UNIT_NAME | RESULT_NUMBER |
| --- | --- | --- | --- |
| FC(F)(F)c1cccc2c1CCC1(CCN(c3ccc(-c4nnc(Cc5cccnc5)[nH]4)nn3)CC1)O2 | IC50 | nM | 0.13 |
| O=C(NCC(O)c1cccnc1)c1ccc(N2CCC3(CCc4c(F)cccc4O3)CC2)nn1 (stereo not given) | IC50 | nM | 12 |
| FC(F)(F)c1cccc2c1CCC1(CCN(c3ccc(-c4nnc(CCc5cccnc5)o4)nn3)CC1)O2 | IC50 | nM | 2 |

Lab note: Cn1nc(Cc2cccnc2)nc1-c1ccc(N2CCC3(CCc4c(cccc4C(F)(F)F)O3)CC2)nn1 gave IC50 of 4

---

# SUBJECT_OF_TEST: Stearoyl-CoA desaturase (Homo sapiens) (UniProt O00767)
# MEASUREMENT_DESCRIPTION: Inhibition of SCD1 in human 293A cells S9 microsomal fraction assessed as conversion of [14C]stearate to [14C]oleate after 60 mins
Reported values of IC50 for individual entries
Provide only the numeric value, understood in nM.

Lab note: FC(F)(F)c1cccc2c1CCC1(CCN(c3ccc(-c4nnc(Cc5cccnc5)o4)nn3)CC1)O2 gave IC50 of 0.03

Lab note: O=C(NCC(O)c1ccccc1)c1ccc(N2CCC3(CC2)CC(=O)c2ccccc2O3)nn1 (configuration not stated) gave IC50 of 250

Lab note: O=C(NCC(O)c1ccccc1)c1ccc(N2CCC3(CC2)Cc2ccccc2C3=O)nn1 (configuration not stated) gave IC50 of 2000

Lab note: O=C(NCC(O)c1ccccc1)c1ccc(N2CCC3(C=Cc4ccccc4O3)CC2)nn1 (configuration not stated) gave IC50 of 790

Lab note: O=C(NCC(O)c1ccccc1)c1ccc(N2CCC3(CC2)Oc2ccccc2CC3O)nn1 (configuration not stated) gave IC50 of 300
